tested on: B6C3F1 mice, B16 melanoma ip, median survival T/C; test: NCI In Vivo Anticancer Drug Screen. Data for tumor model B16 Melanoma (intraperitoneal) in B6C3F1 mice; conditions: endpoint: median survival time; dose: 12.0 mg/kg/injection; schedule: Q01DX009 (ip); vehicle: saline
Inconclusive results and toxic doses are left out. How the source made its calls: active means survival T/C of 150% or more; inactive means T/C below 125% in these data.
Give one outcome, nothing more. List: True (active), False (inactive)

Below, 3 compounds whose answers are already recorded.
compound	class_label
CN(N=O)C(N)=O	True
O=c1[nH]cnc2c1ccn2C1OC(CO)C(O)C1O (stereo not given)	False
O=c1n(CC2CO2)c(=O)n(CC2CO2)n1CC1CO1 (stereo not given)	True

Test call, this compound: CC1(C)N=C(N)N=C(N)N1c1ccc(F)c(C(F)(F)F)c1
False

Recorded test outcome, item O=C(C1CO1)C(Cl)(Cl)Cl (stereo not given)
False

###

# T/C per record follows
test system: B6C3F1 mice, B16 melanoma ip, median survival T/C; test: NCI In Vivo Anticancer Drug Screen. Data for tumor model B16 Melanoma (intraperitoneal) in B6C3F1 mice; conditions: endpoint: median survival time; dose: 3.0 mg/kg/injection; schedule: Q01DX009 (ip); vehicle: Klucel (hydroxypropylcellulose) (HPC); higher = longer survival
Toxic doses and inconclusive results are not listed.

compound	test_system	T/C
NC(CCl)=NCC12CC3CC(CC(C3)C1)C2	B6C3F1 mice, B16 melanoma ip, median survival T/C	104 % of control
C=CC1(C)CCC2C(=CCC3C2(C)CC(O)C(O)C3(C)COC2OC(CO)C(O)C(O)C2O)C1 (stereo unspecified)	B6C3F1 mice, B16 melanoma ip, median survival T/C	103 % of control
CC1=C(CC/C(C)=C/CCC2=CCC(C3=CC(=O)OC3O)OC2O)C(C)(C)CCC1 (stereo unspecified)	B6C3F1 mice, B16 melanoma ip, median survival T/C	90 % of control
CC(=O)O[C@@H]1CO[C@H]2O[C@H]3[C@@H](C(C=O)=C[C@H](O)[C@@H]4C5=C(C(C)C)CC[C@]5(C)CC[C@@]34C)[C@@]2(O)C1=O	B6C3F1 mice, B16 melanoma ip, median survival T/C	88 % of control
CC(C)CC(NC(=O)CNC(=O)CNC(=O)OCc1ccccc1)C(=O)O (stereo unspecified)	B6C3F1 mice, B16 melanoma ip, median survival T/C	95 % of control

Now consider a different compound.
Tell me T/C reported for C/C=C/C=C/c1cc2cc3c(c(O)c2c(=O)[nH]1)C1(CC3)C(O)=c2c(=O)c3c(=O)cc(OC)c(=O)c=3c(=O)c2=C1O (stereo unspecified)
116 % of control

###

Measured T/C accompanies every entry in the list below.
Test system: B6C3F1 mice, B16 melanoma ip, median survival T/C
Experiment: NCI In Vivo Anticancer Drug Screen. Data for tumor model B16 Melanoma (intraperitoneal) in B6C3F1 mice
Settings: endpoint: median survival time; dose: 200.0 mg/kg/injection; schedule: Q01DX009 (ip); vehicle: suspension in saline; higher = longer survival
Description: The antitumor activity of compounds was measured in mice bearing transplantable tumors. Survival or tumor size were measured and the results are expressed as the measurement made in the treated group (T) divided by the measurement made in the vehicle treated control group (C). The tumor model used in this assay is B16 Melanoma (intraperitoneal) in B6C3F1 mice
Inconclusive results and toxic doses are left out.

For the molecule Cc1cc2nc3c(=O)[nH]c(=O)nc-3n(CC(O)C(O)C(O)C(O)CO)c2cc1C (stereo unspecified) , give its measured T/C value.
93 % of control

Please list T/C recorded for the molecule CC#CCOCC(O)CCl (stereo unspecified)
102 % of control

Provide measured T/C value, entry: COc1cc(-c2ccc(Nc3ccccc3C(=O)O)c(OC)c2)ccc1Nc1ccccc1C(=O)O
99 % of control

# return recorded T/C for entry O=C1NC(O)c2ccccc2O1 (stereo unspecified)
100 % of control

Let me know recorded T/C for CS(=O)(=O)Nc1ccc(C(=O)CCN2CCCCCC2)cc1 , thanks.
92 % of control

Look up T/C of COc1ccc(/C=C/C(=O)c2cc(C(=O)O)c(OC)cc2OC)cc1OC and report it.
108 % of control

Quick one: give measured T/C for CCOC(=O)C1=C(C#N)C2(CCC(OCc3ccccc3)CC2)C(=O)O1 (stereo unspecified)
107 % of control

Using the record for N[C@@H](Cc1c[nH]c2ccccc12)C(=O)Nc1nncs1 , state its measured T/C.
103 % of control

Please report the measured T/C for N#CCCN(C(=S)Nc1cccc(C(F)(F)F)c1)C1CCCCC1
113 % of control

# return recorded T/C for input O=c1[nH]c(=O)n([C@H]2CCCO2)cc1F
120 % of control

Fill in reported T/C for this entry: C1CNCCN1
111 % of control

###

system: B6C3F1 mice, B16 melanoma ip, median survival T/C; test: NCI In Vivo Anticancer Drug Screen. Data for tumor model B16 Melanoma (intraperitoneal) in B6C3F1 mice; settings: endpoint: median survival time; dose: 400.0 mg/kg/injection; schedule: Q01DX009 (ip); vehicle: suspension in saline; higher = longer survival
Inconclusive results and toxic doses are left out.
measurement_label: T/C

Solved cases (3 shown):
compound	result
Nc1cccc(=O)[nH]1	93 % of control
CC(C)(C)OC(=O)N1CCCC1C(=O)N1CCCC1C(=O)Oc1ccccc1 (centres undefined)	104 % of control
N#C[C@H](OC1OC(COC2OC(CO)C(O)C(O)C2O)C(O)C(O)C1O)c1ccccc1 (some centres undefined)	103 % of control

Entry COc1cc(-c2ccc(Nc3ccccc3C(=O)O)c(OC)c2)ccc1Nc1ccccc1C(=O)O needs its T/C filled in; supply it.
98 % of control

###

Reported T/C values for the following molecules.
test system: B6C3F1 mice, B16 melanoma ip, median survival T/C; assay: NCI In Vivo Anticancer Drug Screen. Data for tumor model B16 Melanoma (intraperitoneal) in B6C3F1 mice; settings: endpoint: median survival time; dose: 100.0 mg/kg/injection; schedule: Q01DX009 (ip); vehicle: Klucel (hydroxypropylcellulose) (HPC); higher = longer survival
Inconclusive results and toxic doses are left out. Where a SMILES comes first, the peptide text is derived from it.

State its T/C: CN(CC(=O)O)C(=O)CNC(=O)CNC(=O)OCc1ccccc1 (HELM PEPTIDE1{[O=C(OCc1ccccc1)[*:2]].G.G.[Sar]}$$$$V2.0)
104 % of control

Quickly give me recorded T/C for CC1C=NNC1=O (configuration not stated)
92 % of control

Look up and report measured T/C for this entry: NCC(=O)NC(Cc1ccc(O)cc1)C(=O)NCC(=O)O (configuration not stated) (HELM PEPTIDE1{G.[O=C(C(Cc1ccc(O)cc1)N[*:1])[*:2]].G}$$$$V2.0)
98 % of control

###

system: B6C3F1 mice, B16 melanoma ip, median survival T/C; assay: NCI In Vivo Anticancer Drug Screen. Data for tumor model B16 Melanoma (intraperitoneal) in B6C3F1 mice; conditions: endpoint: median survival time; dose: 25.0 mg/kg/injection; schedule: Q01DX009 (ip); vehicle: saline
Inconclusive results and toxic doses are left out. Rule for the calls: active = survival T/C of 150% or more; inactive = T/C below 125% in these data.
In this exercise, the only acceptable responses are active, inactive

Some solved cases for reference:
molecule	class_label
OC(CCl)CN1CC[N+]2(CC1)CC[N+]1(CCN(CC(O)CCl)CC1)CC2 (stereo not given)	active
COc1cc(C)c2c(c1C=O)Oc1c(c(C)c(O)c3c1C(O)OC3=O)OC2=O (stereo not given)	inactive
CCCCCC[C@@H](O)C/C=C\CCCCCCCC(=O)OCCO	inactive
O=C1C=CN(C2OC(CO)C(O)C2O)C(=O)C1 (stereo not given)	inactive
CC1=C2C(=CO[C@H](C)[C@H]2C)C(=O)C(C(=O)O)=C1O	inactive

What classification did CCCC(C(=O)OCCN1CCCC12CCCCC2)C1CCCC1 (stereo not given) end up with in this test?
inactive

# fetch the recorded call for CC(=O)/C=C\c1ccc(Cl)cc1 here
inactive

Check the results log: what was the call for CCCC(=O)O ?
inactive

Entry N#CC(OC1OC(COC2OC(CO)C(O)C(O)C2O)C(O)C(O)C1O)c1ccccc1 (stereo not given) : call = ?
inactive

Hey, what did the test say about [I][Hg][CH2]C1COC([CH2][Hg][I])CO1 (stereo not given) ?
inactive

# lookup: test call for O=C1C=CC(=O)O1 (tested in a mixture with another compound)
inactive

For Nc1c(Cl)[nH]cnc1=S , what call appears in the results of this test?
inactive

Test call for this molecule, please: CCCCC(C)(CCN)CCCC
inactive

State the result this test recorded for C=C(C)[C@@H]1CCc2c(O)c(O)c(=O)cc(C)c2C1 .
inactive

Could you please tell me the result logged for CCCCCCCCCCCCCCCC[N+]1(C)CCN(SN2CC[N+](C)(CCCCCCCCCCCCCCCC)CC2)CC1 in this assay?
inactive

// outcome(item) with item = Clc1ncnc2c1ncn2C1CCCO1 (stereo not given)
inactive

Tell me the assay call for NCCc1cc(O)c(O)c(O)c1 please.
inactive

Query: recorded result category for Cn1cnc([N+](=O)[O-])c1Sc1ncn[nH]1 in this test
inactive

What outcome does the record of this test show for CN(C)C=O ?
inactive
